- System: Staphylococcus sp.
- measurement protocol: in vitro antibacterial evaluation, MIC by broth dilution
- Format: cell-based
- details: strain GC 3051; broth dilution, 18 hours at 35° C.
value type: MIC Staphylococcus aureus (GC 3051)

CC(c1ccccc1)C1NC(=O)CNC(=O)C(CO)NC(=O)C(C(O)C2CNC(=NCc3ccccc3)N2C2OC(CO)C(O)C(O)C2O)NC(=O)C(C(O)C2CNC(=N)N2)NC(=O)C(Cc2ccc(OC3OC(CO)C(OC4OC5COC6(OC5C(O)C4O)C4CC5CC(C4)CC6C5)C(O)C3O)cc2)NC1=O (stereo not shown) [Example 76]	2 to 8 µg/mL
CC(c1ccccc1)C1NC(=O)CNC(=O)C(CO)NC(=O)C(C(O)C2CN(Cc3ccc4ccccc4c3)C(=N)N2C2OC(CO)C(O)C(O)C2O)NC(=O)C(C(O)C2CNC(=N)N2)NC(=O)C(Cc2ccc(OC3OC(CO)C(OC4OC(CO)C(O)C(O)C4O)C(O)C3O)cc2)NC1=O (stereo not shown) [Example 67]	>128 µg/mL
CC(c1ccccc1)C1NC(=O)CNC(=O)C(CO)NC(=O)C(CC2CN(Cc3ccccc3)C(=NCc3ccccc3)N2C2OC(CO)C(O)C(O)C2O)NC(=O)C(CC2CN(Cc3ccccc3)C(=NCc3ccccc3)N2Cc2ccccc2)NC(=O)C(Cc2ccc(OC3OC(CO)C(OC4OC(CO)C(O)C(O)C4O)C(O)C3O)cc2)NC1=O (stereo not shown) [Example 73]	>128 µg/mL
Cc1ccc(Oc2cccc(-c3nc4cc(CC5NC(=O)C(C(C)c6ccccc6)NC(=O)CNC(=O)C(CO)NC(=O)C(C(O)C6CNC(=N)N6C6OC(CO)C(O)C(O)C6O)NC(=O)C(C(O)C6CNC(=N)N6)NC5=O)ccc4o3)c2)cc1 (stereo not shown) [Example 28]	4 µg/mL
CC(c1ccccc1)C1NC(=O)CNC(=O)C(CO)NC(=O)C(CC2CN(Cc3ccccc3)C(=N)N2C2OC(CO)C(O)C(O)C2O)NC(=O)C(CC2CNC(=N)N2)NC(=O)C(Cc2ccc(OC3OC(CO)C(OC4OC5COC6(OC5C(O)C4O)C4CC5CC(C4)CC6C5)C(O)C3O)cc2)NC1=O (stereo not shown) [Example 80]	32 µg/mL
CC(C1CCCCC1)C1NC(=O)CNC(=O)C(CO)NC(=O)C(C(O)C2CNC(=N)N2C2OC(CO)C(O)C(O)C2O)NC(=O)C(C(O)C2CNC(=N)N2)NC(=O)C(CC2CCC(OC3OC(CO)C(OC4OC(CO)C(O)C(O)C4O)C(O)C3O)CC2)NC1=O (stereo not shown) [Example 53a]	>128 µg/mL
CC(c1ccccc1)C1NC(=O)CNC(=O)C(CO)NC(=O)C(C(O)C2CNC(=N)N2C2OC(CO)C(O)C(O)C2O)NC(=O)C(C(O)C2CNC(=N)N2)NC(=O)C(Cc2ccc(O)c(NC(=S)Nc3cc(C(F)(F)F)cc(C(F)(F)F)c3)c2)NC1=O (stereo not shown) [Example 24]	>64 µg/mL

* * *

- Tested on: Enterococcus sp.
- measurement protocol: in vitro antibacterial evaluation, MIC by broth dilution
- Type: cell-based
- details: broth dilution, inoculum 5×10^5 CFU/mL, 18 hours at 35° C.; strain GC 4556
In this section, each of the molecules is paired with its reported MIC Enterococcus faecium (GC 4556).
value type: MIC Enterococcus faecium (GC 4556)

CC(c1ccccc1)C1NC(=O)CNC(=O)C(CO)NC(=O)C(C(O)C2CN(c3nc4ccccc4o3)C(=N)N2C2OC(CO)C(O)C(O)C2O)NC(=O)C(C(O)C2CNC(=Nc3nc4ccccc4o3)N2)NC(=O)C(Cc2ccc(OC3OC(CO)C(OC4OC5COC6(OC5C(O)C4O)C4CC5CC(C4)CC6C5)C(O)C3O)cc2)NC1=O (stereo not shown)	64 µg/mL
CC(c1ccccc1)C1NC(=O)CNC(=O)C(CO)NC(=O)C(C(O)C2CNC(=N)N2C2OC(CO)C(O)C(O)C2O)NC(=O)C(C(O)C2CNC(=N)N2)NC(=O)C(Cc2ccc(OC3OC(CO)C(OC4OC5COC(c6ccccc6)OC5C(O)C4O)C(O)C3O)c(I)c2)NC1=O (stereo not shown)	>64 µg/mL
CC(c1ccccc1)C1NC(=O)CNC(=O)C(CO)NC(=O)C(C(O)C2CNC(=N)N2C2OC(CO)C(O)C(O)C2O)NC(=O)C(C(O)C2CNC(=N)N2)NC(=O)C(Cc2ccc(OC3OC(CO)C(OC4OC5COC(C)(c6ccc(F)cc6)OC5C(O)C4O)C(O)C3O)cc2)NC1=O (stereo not shown)	4 µg/mL
CC(c1ccccc1)C1NC(=O)CNC(=O)C(CO)NC(=O)C(C(O)C2CNC(=N)N2C2OC(CO)C(O)C3OC(C)(C)OC32)NC(=O)C(C(O)C2CNC(=N)N2)NC(=O)C(Cc2ccc(OC3OC(CO)C(OC4OC(CO)C(O)C5OC(C)(C)OC45)C4OC(C)(C)OC34)cc2)NC1=O (stereo not shown) [Example 229a]	>128 µg/mL

* * *

- Tested on: Enterococcus sp.
- measurement protocol: in vitro antibacterial evaluation, MIC by broth dilution
- Format: cell-based
- details: Enterococcus faecium (GC 2243); broth dilution, 18 hours at 35° C.
- From the text: Methods for in vitro Antibacterial Evaluation (Table 1) […]
value type: MIC Enterococcus faecium (GC 2243)

CC(c1ccccc1)C1NC(=O)CNC(=O)C(CO)NC(=O)C(C(O)C2CNC(=N)N2C2OC(CO)C(O)C(O)C2O)NC(=O)C(C(O)C2CNC(=N)N2)NC(=O)C(Cc2ccc(OC3OC(CO)C(OC4OC5COC(CC6CCCCC6)OC5C(O)C4O)C(O)C3O)cc2)NC1=O (centres unmarked) [Example 122]	2 µg/mL
COc1ccc(CC2OCC3OC(OC4C(CO)OC(Oc5ccc(CC6NC(=O)C(C(C)c7ccccc7)NC(=O)CNC(=O)C(CO)NC(=O)C(C(O)C7CNC(=N)N7C7OC(CO)C(O)C(O)C7O)NC(=O)C(C(O)C7CNC(=N)N7)NC6=O)cc5)C(O)C4O)C(O)C(O)C3O2)cc1 (centres unmarked) [Example 103]	4 µg/mL
CC(c1ccccc1)C1NC(=O)CNC(=O)C(CO)NC(=O)C(C(O)C2CN(Cc3ccccc3)C(=NCc3ccccc3)N2C2OC(CO)C(O)C(O)C2O)NC(=O)C(C(O)C2CN(Cc3ccccc3)C(=NCc3ccccc3)N2Cc2ccccc2)NC(=O)C(Cc2ccc(OC3OC(CO)C(OC4OC5COC6(OC5C(O)C4O)C4CC5CC(C4)CC6C5)C(O)C3O)cc2)NC1=O (centres unmarked) [Example 79]	8 µg/mL
CC(c1ccccc1)C1NC(=O)CNC(=O)C(CO)NC(=O)C(C(O)C2CNC(=N)N2C2OC(CO)C(O)C(O)C2O)NC(=O)C(C(O)C2CNC(=N)N2)NC(=O)C(Cc2ccc(OC3OC(CO)C(OC4OC5COC(Cc6ccc(Br)cc6)OC5C(O)C4O)C(O)C3O)cc2)NC1=O (centres unmarked) [Example 118]	1 µg/mL
CC(c1ccccc1)C1NC(=O)CNC(=O)C(CO)NC(=O)C(C(O)C2CNC(=N)N2C2OC(CO)C(O)C(O)C2O)NC(=O)C(C(O)C2CNC(=N)N2)NC(=O)C(Cc2ccc(OC3OC(CO)C(OC4OC5COC(CCc6ccccc6)OC5C(O)C4O)C(O)C3O)cc2)NC1=O (centres unmarked) [Example 124]	4 µg/mL
CC(c1ccccc1)C1NC(=O)CNC(=O)C(CO)NC(=O)C(C(O)C2CNC(=N)N2C2OC(CO)C(O)C(O)C2O)NC(=O)C(C(O)C2CNC(=N)N2)NC(=O)C(Cc2ccc(OC3OC(CO)C(OC4OC(COC(=O)NCc5ccccc5)C(O)C(O)C4O)C(O)C3O)cc2)NC1=O (centres unmarked) [Example 257b]	16 µg/mL
CCCCCCCC1OCC2OC(OC3C(CO)OC(Oc4ccc(CC5NC(=O)C(C(C)c6ccccc6)NC(=O)CNC(=O)C(CO)NC(=O)C(C(O)C6CNC(=N)N6C6OC(CO)C(O)C(O)C6O)NC(=O)C(C(O)C6CNC(=N)N6)NC5=O)cc4)C(O)C3O)C(O)C(O)C2O1 (centres unmarked) [Example 109]	1 µg/mL
CC=C(C)C(=O)OC1C(CO)OC(OC2C(CO)OC(Oc3ccc(CC4NC(=O)C(C(C)c5ccccc5)NC(=O)CNC(=O)C(CO)NC(=O)C(C(O)C5CNC(=N)N5C5OC(CO)C(O)C(O)C5O)NC(=O)C(C(O)C5CNC(=N)N5)NC4=O)cc3)C(O)C2O)C(O)C1O (centres unmarked) [Example 278b]	32 µg/mL
CC(c1ccccc1)C1NC(=O)CNC(=O)C(CO)NC(=O)C(C(O)C2CN(c3nc4ccccc4s3)C(=N)N2C2OC(CO)C(O)C(O)C2O)NC(=O)C(C(O)C2CNC(=Nc3nc4ccccc4s3)N2)NC(=O)C(Cc2ccc(OC3OC(CO)C(OC4OC(CO)C(O)C(O)C4O)C(O)C3O)cc2)NC1=O (centres unmarked) [Example 94]	>64 µg/mL
CC(c1ccccc1)C1NC(=O)CNC(=O)C(CO)NC(=O)C(C(O)C2CNC(=N)N2C2OC(CO)C(O)C(O)C2O)NC(=O)C(C(O)C2CNC(=N)N2)NC(=O)C(Cc2ccc(OC3OC(CO)C(OC4OC5COC(c6ccc7c(c6)OCO7)OC5C(O)C4O)C(O)C3O)cc2)NC1=O (centres unmarked) [Example 143]	8 to 16 µg/mL
COc1cccc(C2OC3C(OC4C(CO)OC(Oc5ccc(CC6NC(=O)C(C(C)c7ccccc7)NC(=O)CNC(=O)C(CO)NC(=O)C(C(O)C7CNC(=N)N7C7OC(CO)C(O)C(O)C7O)NC(=O)C(C(O)C7CNC(=N)N7)NC6=O)cc5)C(O)C4O)OC(CO)C(O)C3O2)c1 (single isomer, unassigned) [Example 137b]	64 µg/mL
